// data source = patent US8778941B2

molecular target: human TRPM8 (Homo sapiens); experiment: Luminescence readout assay for measuring intracellular calcium (aequorin), hTRPM8 antagonism; details: CHO cell line expressing human TRPM8 and aequorin; activation by icilin, L-menthol or cold buffer (table does not say which)
pIC50: −log10 of the molar value.
Entries and their pIC50 values follow.
Readout: pIC50

- Molecule: "O=C(N[C@@H](c1ccc(C(F)(F)F)cc1)c1ccccn1)OCc1ccccc1 [Example 172, 2,2,2-trifluoroacetate]"
  Readout: "pIC50"
  Reported Result: 6.44
- Molecule: "O=C(Nc1cccnc1)N[C@@H](c1ccc(C(F)(F)F)cc1)c1cnccc1C(F)(F)F [Example 119, acetate]"
  Readout: "pIC50"
  Reported Result: 6.43
- Molecule: "CCc1cccc(CC)c1NC(=O)N[C@@H](c1ccc(C(F)(F)F)cc1)c1ncccc1C(F)(F)F [Example 88, acetate]"
  Readout: "pIC50"
  Reported Result: 6.97
- Molecule: "O=C(Nc1ccc(F)cc1)N[C@@H](c1ccc(C(F)(F)F)cc1)c1ncccc1C(F)(F)F [Example 47]"
  Readout: "pIC50"
  Reported Result: 7.01
- Molecule: "O=C(Nc1cccnc1)N[C@@H](c1ccccc1)c1ncccc1C(F)(F)F [Example 20]"
  Readout: "pIC50"
  Reported Result: 5.88
- Molecule: "O=C(Nc1cccnc1)N[C@@H](c1ccc2ncccc2c1)c1ncccc1C(F)(F)F [Example 17]"
  Readout: "pIC50"
  Reported Result: 6.09

###

biological target: human TRPM8 (Homo sapiens, UniProt Q7Z2W7); test: Luminescence readout assay for measuring intracellular calcium (aequorin), hTRPM8 antagonism; details: CHO cell line expressing human TRPM8 and aequorin; activation by icilin, L-menthol or cold buffer (table does not say which)
Sequence (Q7Z2W7 whole entry): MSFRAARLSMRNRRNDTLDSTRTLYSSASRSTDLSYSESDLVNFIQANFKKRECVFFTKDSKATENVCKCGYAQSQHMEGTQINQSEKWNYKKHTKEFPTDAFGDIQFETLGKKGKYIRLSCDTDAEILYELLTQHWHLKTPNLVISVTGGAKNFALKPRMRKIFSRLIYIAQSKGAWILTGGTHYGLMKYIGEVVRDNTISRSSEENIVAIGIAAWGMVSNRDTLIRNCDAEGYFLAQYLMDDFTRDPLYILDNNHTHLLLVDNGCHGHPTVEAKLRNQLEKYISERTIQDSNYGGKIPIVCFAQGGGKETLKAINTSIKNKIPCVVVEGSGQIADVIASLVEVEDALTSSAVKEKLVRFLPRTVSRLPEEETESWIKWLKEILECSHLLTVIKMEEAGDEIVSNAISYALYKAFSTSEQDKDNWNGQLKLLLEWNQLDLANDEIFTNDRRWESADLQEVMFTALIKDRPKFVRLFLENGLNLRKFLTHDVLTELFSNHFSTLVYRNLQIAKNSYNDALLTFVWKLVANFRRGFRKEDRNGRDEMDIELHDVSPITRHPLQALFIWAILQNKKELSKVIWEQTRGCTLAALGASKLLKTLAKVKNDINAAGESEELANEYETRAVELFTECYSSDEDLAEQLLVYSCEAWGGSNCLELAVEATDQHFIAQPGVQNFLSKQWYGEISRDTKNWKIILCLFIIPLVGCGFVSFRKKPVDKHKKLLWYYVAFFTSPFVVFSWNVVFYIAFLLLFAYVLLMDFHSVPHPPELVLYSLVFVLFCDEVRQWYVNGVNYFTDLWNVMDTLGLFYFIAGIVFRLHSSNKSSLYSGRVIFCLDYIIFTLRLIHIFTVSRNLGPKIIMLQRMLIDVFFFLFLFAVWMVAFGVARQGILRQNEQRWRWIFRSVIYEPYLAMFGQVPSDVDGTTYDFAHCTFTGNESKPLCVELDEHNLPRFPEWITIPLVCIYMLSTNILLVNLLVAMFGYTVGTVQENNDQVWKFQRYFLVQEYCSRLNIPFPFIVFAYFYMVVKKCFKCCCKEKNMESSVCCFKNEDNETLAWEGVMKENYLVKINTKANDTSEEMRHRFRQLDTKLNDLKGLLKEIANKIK
Readout: IC50 (nM)

- Molecule: "O=C(Nc1cccnc1)N[C@@H](c1cnc2cccc(Cl)c2c1)c1ncccc1C(F)(F)F"
  Readout: "IC50"
  Unit Abbreviation: "nM"
  Reported Result: 172
- Molecule: "COc1ccc([C@H](NC(=O)Nc2cccnc2)c2ncccc2C(F)(F)F)cc1"
  Readout: "IC50"
  Unit Abbreviation: "nM"
  Reported Result: 230
- Molecule: "O=C(Nc1cccnc1)N[C@@H](c1cnc2c(F)cccc2c1)c1ncccc1C(F)(F)F"
  Readout: "IC50"
  Unit Abbreviation: "nM"
  Reported Result: 533
- Molecule: "CC(C)(C)NC(=O)N[C@@H](c1ccc(C(F)(F)F)cc1)c1ncccc1Br"
  Readout: "IC50"
  Unit Abbreviation: "nM"
  Reported Result: 122
- Molecule: "O=C(NCc1ccccc1F)N[C@@H](c1ccc(C(F)(F)F)cc1)c1ncccc1C(F)(F)F [Example 87, acetate]"
  Readout: "IC50"
  Unit Abbreviation: "nM"
  Reported Result: 199
